Data provenance: patent US20220098319A1

- System under test: T1, human CD73 (full length, on transfected CHOK1 cells) (human, UniProt P21589 27-549)
- T1 sequence (looked up): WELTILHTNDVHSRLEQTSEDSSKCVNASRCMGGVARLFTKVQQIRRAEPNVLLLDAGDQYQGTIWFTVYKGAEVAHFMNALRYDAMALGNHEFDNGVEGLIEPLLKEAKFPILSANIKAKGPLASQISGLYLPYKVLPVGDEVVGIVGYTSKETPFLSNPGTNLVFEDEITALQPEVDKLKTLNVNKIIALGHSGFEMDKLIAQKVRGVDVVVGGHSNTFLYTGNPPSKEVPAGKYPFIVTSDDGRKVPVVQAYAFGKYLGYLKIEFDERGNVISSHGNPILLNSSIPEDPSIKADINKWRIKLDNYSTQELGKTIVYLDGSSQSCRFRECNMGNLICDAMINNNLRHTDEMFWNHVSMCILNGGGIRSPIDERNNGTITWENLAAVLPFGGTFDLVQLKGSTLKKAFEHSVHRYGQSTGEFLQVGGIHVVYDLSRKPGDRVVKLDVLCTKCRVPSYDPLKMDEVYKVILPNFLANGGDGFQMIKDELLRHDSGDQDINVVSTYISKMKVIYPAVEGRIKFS
- Test protocol: cell-based or functional assay
Hi there, I'd appreciate the recorded Inhibition assay of enzyme activity, IC50 for every entry that follows.
Only the number, expressed in nM, is required.

Sample mab032xhIgG1TM (clone 56F12H8), mouse-human chimeric anti-CD73 antibody (antibody, V domains shown, also called mAb032 chimeric antibody) VH: EVQLVESGGDLVKPGGSLKLSCAASGFTFSTHGMSWVRQTPDKRLEWVAIISSDRSDIDYTDNVKGRFTISRDNGKNTLYLQMSSLKSEDTAIYHCARHRGYDGFYYAMDYWGQGTSVTVSS VL: DILMTQSPSSLTVTAGEKVTMSCRSSQSLLNSGNQKNYLTWYQQRPGRPPKLLIYWASTRISGVPDRFAGSGSGTDFTLTISIVQAEDLAVYYCQNDYSYPLTFGSGTKLELR ; Inhibition assay of enzyme activity, IC50 observed: 0.3

Sample mab020xhIgG1TM (clone 24D6B4), mouse-human chimeric anti-CD73 antibody (antibody, V domains shown, also called mAb020 chimeric antibody) VH: EVQLQQSGPELVKPGASVKIPCKASGYTFTDYNMDWVKQRHGKSLEWIGDINPNNGGTVYNQKFKGKATLTVDKSSNTAYMELRSLTSEDTAVYYCARISGTGYWYFDVWGTGTTVTVSS VL: DIQMTQSPASLSVSVGETVTITCRASENIYSNLAWYQQKQGKSPQLLVYGATNLADGVPSRFSGSDSGTQYSLKINSLQSEDFGSYYCQHFWGTPWTFGGGTKLEIK ; Inhibition assay of enzyme activity, IC50 observed: 0.6

Sample mab065xhIgG1TM (clone 125A4E10), mouse-human chimeric anti-CD73 antibody (antibody, V domains shown, also called mAb065 chimeric antibody) VH: EVQLQQSGPELVKPGASVKISCKASGYTFTDYYMNWVKQSHGKSLEWIGNINPNNGDTNYNQKFKGKATLTVDKSSSTASMELRSLTSEDSAVYYCANSGYYYFDYWGQGTTLTVSS VL: DIVMTQSPSSLTVTAGEKVTMSCKSSQSLLNSGNQKNYLTWYQQKPGQPPKVLIYWASTRESGVPDRFTGSGSGTDFTLTISSVQAEDLAVYYCQNDYSYPPTFGGGTNLEIK ; Inhibition assay of enzyme activity, IC50 observed: 0.1

Sample mab044xhIgG1TM (clone 80H7D6), mouse-human chimeric anti-CD73 antibody (antibody, V domains shown, also called mAb044 chimeric antibody) VH: EVKLVESGGGLVQPGGSLRLSCAASGFTFTDYYMSWVRQPPGKALEWLGFIRNKADGSTTEYSASVKGRFTISRDNSQSILYLQMNALRPEDSATYYCTRSPIYFDNWYFDVWGTGTTVTVSS VL: DIVMSQSPSSLAVSVGEKVTMTCKSSQSLLYSNNQKNYLAWYQQKPGQSPKLLIYWASTRESGVPDRFTGSGSGTDFTLTLSSVKAEDLAVYYCQQYYSYPFTFGSGTKLEIK ; Inhibition assay of enzyme activity, IC50 observed: 0.1

Sample mab030xhIgG1TM (clone 42A5A7), mouse-human chimeric anti-CD73 antibody (antibody, V domains shown, also called mAb030 chimeric antibody) VH: DIQLQESGPGLVKPSQSLSLTCSVTGYSITSRYYWNWIRQFPGNKLEWMGYITYDDNNNYNPSLKNRISITRDTSKNQFFLKLNSVTPEDTATYYCARGGWDPFLYWGQGTLVTVSA VL: DIQMTQSPASLSASVGETVTITCRASDNIYSYLAWYQQKQGKSLQLLVDSAKNLGEGVPSRFSGSGSGTQFYLKINSLQPEDFGVYYCQHYYGTPFTFGGGTKLELK ; Inhibition assay of enzyme activity, IC50 observed: 0.1
